Target: CYP1A2 (Homo sapiens)
Sequence (P05177 whole entry): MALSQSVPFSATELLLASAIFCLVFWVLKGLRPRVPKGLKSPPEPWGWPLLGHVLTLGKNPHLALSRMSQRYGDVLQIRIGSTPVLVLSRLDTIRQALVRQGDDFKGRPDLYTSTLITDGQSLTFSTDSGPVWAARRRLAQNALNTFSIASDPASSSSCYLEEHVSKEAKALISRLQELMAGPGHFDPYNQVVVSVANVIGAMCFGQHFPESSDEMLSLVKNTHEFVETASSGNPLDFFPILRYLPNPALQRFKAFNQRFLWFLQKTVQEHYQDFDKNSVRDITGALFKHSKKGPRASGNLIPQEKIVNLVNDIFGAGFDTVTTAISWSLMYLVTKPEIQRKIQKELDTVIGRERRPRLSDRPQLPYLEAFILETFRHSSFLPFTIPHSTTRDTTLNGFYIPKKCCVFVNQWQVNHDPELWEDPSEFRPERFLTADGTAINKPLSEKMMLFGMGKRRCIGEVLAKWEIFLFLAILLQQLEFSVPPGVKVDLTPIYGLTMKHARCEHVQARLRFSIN
Assay: Mechanism-based (time-dependent) inhibition of CYP1A2 by piperlongumine
Assay type: in vitro ADME
Settings: human liver microsomes, pH 7.4, probe phenacetin […] µM, read-out: KI (inactivation parameter)
reportedEndpoint: KI (inactivation) (µM)
Give just the numeric value; µM need not be written.

Given the compound COc1cc(/C=C/C(=O)N2CCC=CC2=O)cc(OC)c1OC , write its reported KI (inactivation). 8
